# assaySystem: HLA-B*35:01
# experimentNotes: IEDB peptide-MHC binding, purified MHC/direct/fluorescence; filed as Kd, often an IC50 or EC50 that approximates it; bounds were set here for any values at or beyond the usual limits of such assays
# conditionSummary: source organism: Rickettsia prowazekii
metric: Kd (nM)
Give bare numbers, in nM.

Enquiry: Could you share which Kd value was measured for YGGKKAVTY ?
Return: 249

###

# assaySystem: HLA-A*31:01
# experimentNotes: IEDB peptide-MHC binding, purified MHC/direct/fluorescence; filed as Kd, often an IC50 or EC50 that approximates it; bounds were set here for any values at or beyond the usual limits of such assays
# conditionSummary: source organism: Corynebacterium glutamicum
pKd: −log10 of the molar value.
metric: pKd

Enquiry: Could you share which pKd value was measured for VLPVPGASV ?
Return: ≤ 4.70

###

# assaySystem: HLA-A*11:01
# experimentNotes: IEDB peptide-MHC binding, purified MHC/direct/fluorescence; filed as Kd, often an IC50 or EC50 that approximates it; bounds were set here for any values at or beyond the usual limits of such assays
# conditionSummary: source organism: Escherichia coli O157:H7
metric: pKd
Numbers only, as −log10 of the molar value.

Enquiry: Could you share which pKd value was measured for ITAGYNRYY ?
Return: 5.59

###

# assaySystem: HLA-B*27:05
# experimentNotes: IEDB peptide-MHC binding, purified MHC/direct/fluorescence; filed as Kd, often an IC50 or EC50 that approximates it; bounds were set here for any values at or beyond the usual limits of such assays
# conditionSummary: source organism: Mammarenavirus lassaense
pKd: −log10 of the molar value.
metric: pKd

Enquiry: Could you share which pKd value was measured for SHGIDVTDL ?
Return: ≤ 4.70

###

# assaySystem: HLA-A*02:01
# experimentNotes: IEDB peptide-MHC binding, purified MHC/direct/fluorescence; filed as Kd, often an IC50 or EC50 that approximates it; bounds were set here for any values at or beyond the usual limits of such assays
# conditionSummary: source organism: Escherichia coli O157:H7
pKd: −log10 of the molar value.
What pKd was measured for each of the following?

>  <entrySequence>
LLKLWIDKV

>  <pKd>
7.44

$$$$
>  <entrySequence>
ITAGYNRYY

>  <pKd>
≤ 4.70

$$$$

Okay, now this sequence:
Enquiry: Could you share which pKd value was measured for ETWVETWAF ?
Return: ≤ 4.70

###

# assaySystem: HLA-B*57:01
# experimentNotes: IEDB peptide-MHC binding, purified MHC/direct/fluorescence; filed as Kd, often an IC50 or EC50 that approximates it; bounds were set here for any values at or beyond the usual limits of such assays
# conditionSummary: source organism: Giardia intestinalis
metric: Kd

Enquiry: Could you share which Kd value was measured for INTLESMMK ?
Return: ≥ 20 µM

###

# assaySystem: HLA-A*03:01
# experimentNotes: IEDB peptide-MHC binding, purified MHC/competitive/fluorescence; filed as Kd, often an IC50 or EC50 that approximates it; bounds were set here for any values at or beyond the usual limits of such assays
# conditionSummary: source organism: Listeria monocytogenes EGD-e
pKd: −log10 of the molar value.
metric: pKd

Enquiry: Could you share which pKd value was measured for CLRIPMTDH ?
Return: ≤ 4.70

###

# assaySystem: HLA-B*27:05
# experimentNotes: IEDB peptide-MHC binding, purified MHC/direct/fluorescence; filed as Kd, often an IC50 or EC50 that approximates it; bounds were set here for any values at or beyond the usual limits of such assays
# conditionSummary: source organism: Brucella suis
metric: Kd

Enquiry: Could you share which Kd value was measured for DVIGNDRQE ?
Return: ≥ 20 µM

###

# assaySystem: HLA-A*24:03
# experimentNotes: IEDB peptide-MHC binding, purified MHC/competitive/fluorescence; filed as Kd, often an IC50 or EC50 that approximates it; bounds were set here for any values at or beyond the usual limits of such assays
# conditionSummary: source organism: Bacillus cereus G9241
metric: Kd (µM)
Answers are plain numbers, in µM.

Enquiry: Could you share which Kd value was measured for KFIILLTSF ?
Return: 0.159

###

# assaySystem: HLA-A*69:01
# experimentNotes: IEDB peptide-MHC binding, purified MHC/direct/fluorescence; filed as Kd, often an IC50 or EC50 that approximates it; bounds were set here for any values at or beyond the usual limits of such assays
# conditionSummary: source organism: Ebola virus - Mayinga, Zaire, 1976
pKd: −log10 of the molar value.
metric: pKd

Enquiry: Could you share which pKd value was measured for FIYFGKKQY ?
Return: ≤ 4.70

###

# assaySystem: HLA-B*57:01
# experimentNotes: IEDB peptide-MHC binding, purified MHC/direct/fluorescence; filed as Kd, often an IC50 or EC50 that approximates it; bounds were set here for any values at or beyond the usual limits of such assays
# conditionSummary: source organism: Influenza A virus (A/Quail/Shanghai/8/96(H9N2))
metric: Kd
Answer by giving the amount and then stating its unit.

Enquiry: Could you share which Kd value was measured for LVGGREWSY ?
Return: 1.3 µM

###

# assaySystem: HLA-A*02:01
# experimentNotes: IEDB peptide-MHC binding, purified MHC/competitive/radioactivity; bounds were set here for any values at or beyond the usual limits of such assays
# conditionSummary: source organism: Trypanosoma cruzi
metric: pIC50
One number for each entry, as −log10 of the molar value.

Enquiry: Could you share which pIC50 value was measured for FLSHNFTLV ?
Return: 9.21

###

# assaySystem: HLA-B*18:01
# experimentNotes: IEDB peptide-MHC binding, purified MHC/competitive/fluorescence; filed as Kd, often an IC50 or EC50 that approximates it; bounds were set here for any values at or beyond the usual limits of such assays
# conditionSummary: source organism: Cryptosporidium parvum Iowa II
pKd: −log10 of the molar value.
What pKd was measured for each of the following?

>  <entrySequence>
KLGDITLFL

>  <recordedMeasurement>
≤ 4.70

$$$$

Enquiry: Could you share which pKd value was measured for KIFKVTGEF ?
Return: ≤ 4.70

###

# assaySystem: HLA-B*08:02
# experimentNotes: IEDB peptide-MHC binding, purified MHC/direct/fluorescence; filed as Kd, often an IC50 or EC50 that approximates it; bounds were set here for any values at or beyond the usual limits of such assays
# conditionSummary: source organism: Influenza A virus(A/swine/Shandong/fZC/2003(H9N2))
pKd: −log10 of the molar value.
metric: pKd

Enquiry: Missing value: pKd, HLA-B*08:02, entry HFQKDAKVL . Fill in?
Return: ≤ 4.70

###

# assaySystem: HLA-B*57:01
# experimentNotes: IEDB peptide-MHC binding, purified MHC/direct/fluorescence; filed as Kd, often an IC50 or EC50 that approximates it; bounds were set here for any values at or beyond the usual limits of such assays
# conditionSummary: source organism: Bacillus cereus
metric: Kd (µM)
Answers are plain numbers, in µM.

Enquiry: Could you share which Kd value was measured for LGTIYGFIW ?
Return: 0.521

###

# assaySystem: HLA-B*07:02
# experimentNotes: IEDB peptide-MHC binding, purified MHC/competitive/radioactivity; filed as Kd, often an IC50 or EC50 that approximates it; bounds were set here for any values at or beyond the usual limits of such assays
# conditionSummary: source organism: Mammarenavirus lassaense
What Kd was measured for each of the following?
Numbers only, in µM.

>  <entrySequence>
FPAIFSAEV

>  <assaySystem>
HLA-B*07:02

>  <unitAnnotation>
µM

>  <recordedMeasurement>
0.0653

$$$$

Okay, now this sequence:
Enquiry: Could you share which Kd value was measured for FPAGLTYSQL ?
Return: 0.155

###

# assaySystem: HLA-B*27:03
# experimentNotes: IEDB peptide-MHC binding, purified MHC/competitive/fluorescence; filed as Kd, often an IC50 or EC50 that approximates it; bounds were set here for any values at or beyond the usual limits of such assays
# conditionSummary: source organism: Orthohantavirus sinnombreense
pKd: −log10 of the molar value.
metric: pKd

Enquiry: Could you share which pKd value was measured for YLQAKSQVL ?
Return: ≤ 4.70

###

# assaySystem: HLA-A*02:01
# experimentNotes: IEDB peptide-MHC binding, purified MHC/direct/fluorescence; filed as Kd, often an IC50 or EC50 that approximates it; bounds were set here for any values at or beyond the usual limits of such assays
# conditionSummary: source organism: Influenza A virus (A/Quail/Shanghai/8/96(H9N2))
pKd: −log10 of the molar value.
metric: pKd

Enquiry: Could you share which pKd value was measured for LVGGREWSY ?
Return: ≤ 4.70

###

# assaySystem: HLA-B*08:01
# experimentNotes: IEDB peptide-MHC binding, purified MHC/direct/fluorescence; filed as Kd, often an IC50 or EC50 that approximates it; bounds were set here for any values at or beyond the usual limits of such assays
# conditionSummary: source organism: Vibrio vulnificus
metric: Kd

Enquiry: Could you share which Kd value was measured for STDTRHIPQ ?
Return: ≥ 20 µM

###

# assaySystem: HLA-C*15:02
# experimentNotes: IEDB peptide-MHC binding, purified MHC/direct/fluorescence; filed as Kd, often an IC50 or EC50 that approximates it; bounds were set here for any values at or beyond the usual limits of such assays
# conditionSummary: source organism: Human immunodeficiency virus type 1 (Z-84 ISOLATE)
metric: Kd

Enquiry: Could you share which Kd value was measured for YIKIFIMIV ?
Return: ≥ 20 µM
